All figures here come from the supplement of paper PMC4466140.

# Assay target: SpHse1
# Protocol summary: SPOT peptide array binding signal intensity (averaged, normalized) (arbitrary units (background-subtracted, floor 0; scale differs between SH3 domains)); higher = stronger binding of the SH3 domain to the peptide
SPOT peptide array binding signal intensity class ranges: 0 (below 50), 1 (50 to below 300), 2 (300 or more)

Note: place this binder into its band. Item: `APERAVPILPPRNNV`
0

Note: place this binder into its band. Item: `NLDRSKISLPDFDDE`
2

Note: place this binder into its band. Item: `QLMKNLPKIPLLNDI`
1

Note: place this binder into its band. Item: `PSRRDSLSIPRAVDA`
0

Note: place this binder into its band. Item: `NQARKPFLLPATELS`
2

Note: place this binder into its band. Item: `LKRITSPPLPPRADS`
0

Note: place this binder into its band. Item: `NFFRKKLGIPRKLKR`
2

Note: place this binder into its band. Item: `DTFLPPPPPPPSNFE`
0

Note: place this binder into its band. Item: `MFLISPPASPPPEFD`
1

Note: place this binder into its band. Item: `PPIPNAPLSPAPAVP`
0

Note: place this binder into its band. Item: `NPTKSPPPPPSPSTM`
1

Note: place this binder into its band. Item: `KDKSRPPRPPPKPLH`
0

Note: place this binder into its band. Item: `RPVPPPPPMRTTTEG`
1

Note: place this binder into its band. Item: `RTIRKLPLMSLSEYF`
2

Note: place this binder into its band. Item: `IHTRRPSSTSQYLIR`
2
